All figures here come from paper PMC11187106.

# pKd listing for each entry below
MEASURED_ON: CtBP1(WT, FL) (human, UniProt Q13363 1-440)
ASSAY_TEXT: ITC; VP-ITC, 25 °C, 50 mM HEPES (pH 7.2), 150 mM NaCl; CtBP in the cell (10 µM for M1 or M2, 20 µM for WT RAI2 constructs), RAI2 constructs in the syringe (100 µM); mean of three measurements
ASSAY_CONTEXT: both partners purified
pKd: −log10 of the molar value.

BINDER	pKd
RAI2(M1, 303–362) (domain or fragment, 15N-labelled for NMR; PDB 8ARI holds the Δ11 variant of the same limits; source: E. coli BL21 DE3 LOBSTR, purified (HisTrap, TEV cleavage, Superdex 75); not shown: His6, N-terminal, cleaved) SRHTVIKMGSENEALDAAMKSVPWLKAGEVSPPIFQEDAALDLSVAAHRKSEPPPETLYD	~5.30

[ask] Would you kindly share the measured pKd for RAI2(M2, 303–362) (domain or fragment, 15N-labelled for NMR; PDB 8ARI holds the Δ11 variant of the same limits; source: E. coli BL21 DE3 LOBSTR, purified (HisTrap, TEV cleavage, Superdex 75); not shown: His6, N-terminal, cleaved) SRHTVIKMGSENEALDLSMKSVPWLKAGEVSPPIFQEDAALDAAVAAHRKSEPPPETLYD ?
[reply] ~5.30
